B1: Osa-1-4 twister ribozyme (parent)
chain: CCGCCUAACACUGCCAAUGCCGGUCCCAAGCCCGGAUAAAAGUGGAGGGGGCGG

- Variants of: B1
- method: self-cleavage, relative activity (ratio to wild type); higher = more cleavage; co-transcriptional
Tag: T if measured self-cleavage is not below 0.05, F if it is.

Consider the following illustrative entries.
mutation: C52U U43A
assignedLabel: T
--
mutation: A7C C27G
assignedLabel: F
--
mutation: C33A G54U
assignedLabel: T
--
mutation: G22C G47C
assignedLabel: F
--
mutation: A7C C25G
assignedLabel: F
--
mutation: G13C G47C
assignedLabel: F

Query: Would you say C26U C32A shows self-cleavage at minimum 0.05?
Response: T

Query: Please tell me: is the variant G30C G44A at or over 0.05 in terms of self-cleavage?
Response: F

Query: Is it the case that C25A G45C has self-cleavage reaching or exceeding 0.05?
Response: F
